target: His6-ERα298-554 WT (ERα ligand-binding domain) (Homo sapiens (Human)); experiment: Test A: biochemical antagonist activity, LanthaScreen TR-FRET ERα coactivator assay, WT; settings: asterisk (*): protocol using 10 nM estradiol; read-out: Antagonism WT IC50
property: IC50 (nM)
// note: answer is a bare numeric in nM

>  <givenSmiles>
[2H]C([2H])([2H])Oc1ccc(C2=C(c3ccc(O[C@H]4CCN(CCCF)C4)cc3)c3ccc(O)cc3SCC2)c(F)c1

>  <unitsLabel>
nM

>  <IC50>
2

$$$$
>  <givenSmiles>
Cc1ccc(C2=C(c3ccc(O[C@H]4CCN(CCCF)C4)cc3)c3ccc(O)cc3SC2)c(F)c1F

>  <unitsLabel>
nM

>  <IC50>
24

$$$$
>  <givenSmiles>
Oc1ccc2c(c1)SCC(c1ccc(Cl)nc1Cl)=C2c1ccc(O[C@H]2CCN(CCCF)C2)cc1

>  <unitsLabel>
nM

>  <IC50>
72

$$$$
>  <givenSmiles>
C[C@H]1Cc2cc(C3=C(c4ccc(O[C@H]5CCN(CCCF)C5)cc4)c4ccc(O)cc4SCC3)ccc2O1

>  <unitsLabel>
nM

>  <IC50>
24

$$$$

// returns IC50 for CCOc1ccc(C2=C(c3ccc(O[C@H]4CCN(CCCF)C4)cc3)c3ccc(O)cc3OCC2)c(Cl)c1 with His6-ERα298-554 WT (ERα ligand-binding domain) (Homo sapiens (Human)); value = 6

// returns IC50 for CCOc1ccc(C2=C(c3ccc(O[C@H]4CCN(CCCF)C4)nc3)c3ccc(O)cc3CCC2)c(F)n1 with His6-ERα298-554 WT (ERα ligand-binding domain) (Homo sapiens (Human)); value = 6

* * *

target: ERα in MCF7 cells (Homo sapiens (Human)); assay: Test C: estrogen receptor degradation activity, ERα in cell western assay in MCF7 cells; assay type: cell-based; details: at 3 μM, 4 hours, relative to fulvestrant
property: % Degradation at 3 μM (%)
// note: answer is a bare numeric in %

>  <givenSmiles>
CONC(=O)c1cc(C2=C(c3ccc(O[C@H]4CCN(CCCF)C4)cc3)c3ccc(O)cc3SCC2)ccc1F

>  <% Degradation at 3 μM, %>
94

$$$$

Read the next record carefully.
Summary for this compound, Oc1ccc2c(c1)OCCC(c1cccc3c1CCN3)=C2c1ccc(O[C@H]2CCN(CCCF)C2)cc1 : % Degradation at 3 μM is 92

* * *

Entries and their pIC50
biological target: His6-ERα298-554 D538G mutant (ERα ligand-binding domain) (Homo sapiens (Human), UniProt P03372, D538G); assay: Test A: biochemical antagonist activity, LanthaScreen TR-FRET ERα coactivator assay, D538G mutant; settings: protocol with 3 nM estradiol; read-out: Antagonism D538G IC50
Sequence (P03372 298-554 D538G): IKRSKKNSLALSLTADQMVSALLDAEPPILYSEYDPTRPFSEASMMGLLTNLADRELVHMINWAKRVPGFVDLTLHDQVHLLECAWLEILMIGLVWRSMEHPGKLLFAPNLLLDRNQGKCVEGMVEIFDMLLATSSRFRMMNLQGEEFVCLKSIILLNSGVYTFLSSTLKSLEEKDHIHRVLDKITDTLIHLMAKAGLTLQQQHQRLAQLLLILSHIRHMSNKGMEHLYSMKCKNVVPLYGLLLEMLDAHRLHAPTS
// field semantics: pIC50 = negative decimal log of concentration (mol/L)

See these solved cases before continuing.
>  <givenSmiles>
Cc1ccc(C2=C(c3ccc(O[C@H]4CCN(CCCF)C4)cc3)c3ccc(O)cc3OCC2)c(F)c1

>  <pIC50>
7.33

$$$$
>  <givenSmiles>
Oc1ccc2c(c1)C(c1ccc(O[C@H]3CCN(CCCF)C3)cc1)=C(c1ccc(Cl)cc1F)CCS2

>  <pIC50>
6.87

$$$$
>  <givenSmiles>
Cc1cc(C2=C(c3ccc(O[C@H]4CCN(CCCF)C4)cc3)c3ccc(O)cc3OCC2)ccc1Cl

>  <pIC50>
7.44

$$$$

Read the next record carefully.
Summary for this compound, Oc1ccc2c(c1)SCCC(c1ccc(OC(F)F)c(F)c1)=C2c1ccc(O[C@H]2CCN(CCCF)C2)cc1 : pIC50 is 7.29

* * *

target: ERα in MCF7 cells (Homo sapiens (Human), UniProt P03372); experiment: Test C: estrogen receptor degradation activity, ERα in cell western assay in MCF7 cells; format: cell-based; details: at 3 μM, 4 hours, relative to fulvestrant
Sequence (P03372 whole entry): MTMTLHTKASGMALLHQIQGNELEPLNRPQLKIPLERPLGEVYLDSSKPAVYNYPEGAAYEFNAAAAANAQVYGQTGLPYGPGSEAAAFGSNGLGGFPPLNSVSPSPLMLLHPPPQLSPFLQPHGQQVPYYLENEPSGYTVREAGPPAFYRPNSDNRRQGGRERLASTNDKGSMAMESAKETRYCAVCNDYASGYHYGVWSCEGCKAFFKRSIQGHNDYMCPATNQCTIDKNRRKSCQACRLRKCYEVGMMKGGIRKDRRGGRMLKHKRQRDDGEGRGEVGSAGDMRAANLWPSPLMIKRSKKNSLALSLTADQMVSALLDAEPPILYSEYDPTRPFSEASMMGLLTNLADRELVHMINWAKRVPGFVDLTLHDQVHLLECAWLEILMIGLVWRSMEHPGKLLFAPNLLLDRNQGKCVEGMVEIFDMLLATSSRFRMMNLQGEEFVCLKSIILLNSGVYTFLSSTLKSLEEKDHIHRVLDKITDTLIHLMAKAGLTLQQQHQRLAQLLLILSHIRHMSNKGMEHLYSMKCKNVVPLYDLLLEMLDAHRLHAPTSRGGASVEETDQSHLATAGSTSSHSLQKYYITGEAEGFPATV
Entries and their % Degradation at 3 μM
// note: answer is a bare numeric in %

>  <givenSmiles>
Cc1c(O)ccc2c1OCCC(c1ccc3cc[nH]c3c1)=C2c1ccc(O[C@H]2CCN(CCCF)C2)cc1

>  <testTarget>
ERα in MCF7 cells (Homo sapiens (Human), UniProt P03372)

>  <testValue>
75

$$$$
>  <givenSmiles>
CC(C)Oc1ccc(C2=C(c3ccc(O[C@H]4CCN(CCCF)C4)cc3)c3ccc(O)cc3OCC2)cc1F

>  <testTarget>
ERα in MCF7 cells (Homo sapiens (Human), UniProt P03372)

>  <testValue>
87

$$$$
>  <givenSmiles>
Oc1ccc2c(c1)SCCC(c1ccc(SC(F)(F)F)cc1)=C2c1ccc(O[C@H]2CCN(CCCF)C2)cc1

>  <testTarget>
ERα in MCF7 cells (Homo sapiens (Human), UniProt P03372)

>  <testValue>
80

$$$$

Read the next record carefully.
Summary for this molecule, Oc1ccc2c(c1)SCCC(c1ccc3c(c1)CCN3)=C2c1ccc(O[C@H]2CCN(CCCF)C2)cc1 : % Degradation at 3 μM is 85

* * *

tested on: MCF7 cells (breast tumor cells) WT; assay: Test B: cell proliferation/viability assay (CellTiter-Glo) on MCF7 WT; assay type: cell-based; conditions: Homo sapiens, MCF7, 168 h, 7 days of compound exposure
pIC50: −log10 of the molar value.
Kind request: treat 9 as inclusive, so pIC50 at 9 or higher is True, anything lower is False.

Answered cases to consult:
>  <givenSmiles>
Oc1ccc2c(c1)C(c1ccc(O[C@H]3CCN(CCCF)C3)cc1)=C(c1ccc(SC(F)(F)F)cc1)CC2

>  <labelValue>
False

$$$$
>  <givenSmiles>
Oc1ccc2c(c1)SCCC(c1ccc(OC(F)(F)F)cc1F)=C2c1ccc(O[C@H]2CCN(CCCF)C2)cc1

>  <labelValue>
True

$$$$
>  <givenSmiles>
Oc1ccc2c(c1)SCCC(c1ccc3c(c1)OC(F)(F)O3)=C2c1ccc(O[C@H]2CCN(CCCF)C2)cc1

>  <labelValue>
True

$$$$

Attention now shifts to the item below.
Problem: In plain terms: is recorded pIC50 at least 9 for Oc1ccc2c(c1)OCCC(c1ccc(Cl)cc1Cl)=C2c1ccc(O[C@H]2CCN(CCCF)C2)cc1 ?
Solution: True

* * *

Entries and their IC50
target: His6-ERα298-554 WT (ERα ligand-binding domain) (Homo sapiens (Human), UniProt P03372); assay: Test A: biochemical antagonist activity, LanthaScreen TR-FRET ERα coactivator assay, WT; settings: asterisk (*): protocol using 10 nM estradiol; read-out: Antagonism WT IC50
Sequence (P03372 298-554): as the sequence (P03372 298-554 D538G) above, with G241D counted along it
// note: answer is a bare numeric in nM

See these solved cases before continuing.
>  <molecule>
CC1(C)Cc2cc(C3=C(c4ccc(O[C@H]5CCN(CCCF)C5)cc4)c4ccc(O)cc4SCC3)ccc2O1 [Example 201]

>  <testTarget>
His6-ERα298-554 WT (ERα ligand-binding domain) (Homo sapiens (Human), UniProt P03372)

>  <IC50, nM>
1

$$$$
>  <molecule>
Cc1ccc(C2=C(c3cnc(O[C@H]4CCN(CCCF)C4)nc3)c3ccc(O)cc3SC2)c(F)c1 [Example 77]

>  <testTarget>
His6-ERα298-554 WT (ERα ligand-binding domain) (Homo sapiens (Human), UniProt P03372)

>  <IC50, nM>
16

$$$$

// returns IC50 for CCOc1cc(F)c(C2=C(c3ccc(O[C@H]4CCN(CCCF)C4)cc3)c3ccc(O)cc3SCC2)cc1F [Example 220] with His6-ERα298-554 WT (ERα ligand-binding domain) (Homo sapiens (Human), UniProt P03372); value = 8

// returns IC50 for CCOc1ccc(C2=C(c3ccc(O[C@H]4CCN(CCCF)C4)nc3)c3ccc(O)c(F)c3CCC2)c(F)n1 [Example 252] with His6-ERα298-554 WT (ERα ligand-binding domain) (Homo sapiens (Human), UniProt P03372); value = 0.7

// returns IC50 for Oc1cc2c(cc1F)C(c1ccc(O[C@H]3CCN(CCCF)C3)cc1)=C(c1ccc3occc3c1)CCO2 [Example 156] with His6-ERα298-554 WT (ERα ligand-binding domain) (Homo sapiens (Human), UniProt P03372); value = 19

// returns IC50 for Oc1ccc2c(c1)SCCC(c1ccc(OC(F)(F)F)cc1F)=C2c1ccc(O[C@H]2CCN(CCCF)C2)cc1 [Example 212] with His6-ERα298-554 WT (ERα ligand-binding domain) (Homo sapiens (Human), UniProt P03372); value = 34

* * *

molecular target: ERα in MCF7 cells (Homo sapiens (Human), UniProt P03372); assay: Test C: estrogen receptor degradation activity, ERα in cell western assay in MCF7 cells; type: cell-based; details: at 3 μM, 4 hours, relative to fulvestrant
Entries and their % Degradation at 3 μM
// note: answer is a bare numeric in %

See these solved cases before continuing.
>  <compound>
Oc1ccc2c(c1)SCC(c1ccc3c(c1)CCN3)=C2c1ccc(O[C@H]2CCN(CCCF)C2)cc1

>  <testTarget>
ERα in MCF7 cells (Homo sapiens (Human), UniProt P03372)

>  <unitsLabel>
%

>  <% Degradation at 3 μM>
86

$$$$
>  <compound>
CCOc1ccc(C2=C(c3cnc(O[C@H]4CCN(CCCF)C4)nc3)c3ccc(O)cc3SC2)c(F)n1

>  <testTarget>
ERα in MCF7 cells (Homo sapiens (Human), UniProt P03372)

>  <unitsLabel>
%

>  <% Degradation at 3 μM>
88

$$$$
>  <compound>
CCOc1ccc(C2=C(c3cnc(O[C@H]4CCN(CCCF)C4)nc3)c3ccc(O)cc3CCC2)c(F)n1

>  <testTarget>
ERα in MCF7 cells (Homo sapiens (Human), UniProt P03372)

>  <unitsLabel>
%

>  <% Degradation at 3 μM>
89

$$$$
>  <compound>
CC(C)(C)c1ccc(C2=C(c3ccc(N[C@H]4CCN(CCCF)C4)cc3)c3ccc(O)cc3CCC2)cc1

>  <testTarget>
ERα in MCF7 cells (Homo sapiens (Human), UniProt P03372)

>  <unitsLabel>
%

>  <% Degradation at 3 μM>
91

$$$$

Summary for this compound, COc1ccc(C2=C(c3ccc(O[C@H]4CCN(CCCF)C4)cc3)c3ccc(O)cc3OCC2)c(Cl)c1 : % Degradation at 3 μM is 92

Summary for this compound, Oc1ccc2c(c1)SCCC(c1ccc(Cl)cc1Cl)=C2c1ccc(O[C@H]2CCN(CCCF)C2)nc1 : % Degradation at 3 μM is 84

Summary for this compound, CC(C)(C)OC(=O)N1CCOc2ccc(C3=C(c4ccc(O[C@H]5CCN(CCCF)C5)cc4)c4ccc(O)cc4SC3)cc21 : % Degradation at 3 μM is 81

Summary for this compound, Oc1ccc2c(c1)C(c1ccc(O[C@H]3CCN(CCCF)C3)cc1)=C(c1cccc(F)c1Cl)CCS2 : % Degradation at 3 μM is 81

Summary for this compound, CCOc1cc(F)c(C2=C(c3ccc(O[C@H]4CCN(CCCF)C4)cc3)c3ccc(O)cc3SC2)cc1F : % Degradation at 3 μM is 81

Summary for this compound, Oc1cc2c(cc1F)C(c1ccc(O[C@H]3CCN(CCCF)C3)cc1)=C(c1ccc3c(c1)CCN3)CCO2 : % Degradation at 3 μM is 83

Summary for this compound, CCN(CC)c1ccc(C2=C(c3ccc(O[C@H]4CCN(CCCF)C4)cc3)c3ccc(O)cc3SC2)c(F)c1 : % Degradation at 3 μM is 83

Summary for this compound, Cc1cc(F)ccc1C1=C(c2ccc(O[C@H]3CCN(CCCF)C3)cc2)c2ccc(O)cc2SCC1 : % Degradation at 3 μM is 90

Summary for this compound, CC1Cc2c([nH]c3ccccc23)C(c2c(F)cc(O[C@H]3CCN(CCCF)C3)cc2F)N1CC(C)(C)F (single isomer, unassigned) [Example 257] : % Degradation at 3 μM is 87

Summary for this compound, CC(C)Oc1ccc(C2=C(c3ccc(O[C@H]4CCN(CCCF)C4)cc3)c3ccc(O)cc3OCC2)c(C(F)(F)F)c1.Cl : % Degradation at 3 μM is 82
